molecular target: human P2X3 receptor (Homo sapiens (Human), UniProt P56373); assay: Evaluation of human P2X3 receptor inhibitory activity (ATP-induced Fluo-3 fluorescence, FDSS 3000); conditions: C6BU-1 cell transfected with human P2X3 receptor gene
Sequence (P56373 whole entry): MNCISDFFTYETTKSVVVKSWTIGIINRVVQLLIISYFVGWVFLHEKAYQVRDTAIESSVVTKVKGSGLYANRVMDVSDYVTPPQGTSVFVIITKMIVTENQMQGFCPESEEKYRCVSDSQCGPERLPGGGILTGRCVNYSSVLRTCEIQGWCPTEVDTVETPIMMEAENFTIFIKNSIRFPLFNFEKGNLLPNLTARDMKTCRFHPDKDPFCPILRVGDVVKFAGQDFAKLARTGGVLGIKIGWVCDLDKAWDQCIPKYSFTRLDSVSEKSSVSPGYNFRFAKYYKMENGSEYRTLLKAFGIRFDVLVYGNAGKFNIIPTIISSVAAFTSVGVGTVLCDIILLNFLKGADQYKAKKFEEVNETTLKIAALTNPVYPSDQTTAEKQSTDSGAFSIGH
pIC50: −log10 of the molar value.
Note to self: values exactly at 7 are Fulfilled. So pIC50 at or above 7 is Fulfilled, below is Not fulfilled.

Cc1nc2ccc(Nc3cc(=O)n(CCO)c(=O)n3Cc3ccc(Cl)cc3)cc2s1 [I-355] = Fulfilled
CC(C)Oc1ccc(Nc2oc(Cc3ccccc3)nc2Cc2ccc(Cl)cc2)cc1F [I-070] = Not fulfilled
CC(=O)OC(C)(C)C(=O)Nc1cnc(Nc2ccc(Oc3ccc(C)nc3)cc2)n(Cc2ccc(Cl)cc2)c1=O [I-293] = Fulfilled
CC(C)Oc1ccc(Nc2ncc(N)c(=O)n2Cc2ccc(Cl)cc2)cc1F [I-243] = Not fulfilled
CCOC(=O)c1cn(Cc2ccc(Cl)cc2)c(Nc2ccc(OC(C)C)c(Cl)c2)nc1=O [I-125] = Not fulfilled
CC(C)Oc1ccc(Nc2ccc(Cc3nc(N(C)C)oc(=O)c3Cl)cc2)cc1F [I-063] = Not fulfilled
O=C(Nc1cnc(Nc2ccc(Oc3cnc(Cl)c(F)c3)cc2)n(Cc2ccc(Cl)cc2)c1=O)C1CCOCC1 [I-311] = Fulfilled
Cc1ccc(Oc2ccc(Nc3ncc(NC(=O)C4CCOCC4)c(=O)n3Cc3ccc(Cl)cc3)cc2)cn1 [I-265] = Fulfilled
CC(C)Oc1ccc(Nc2ncc(N(S(C)(=O)=O)S(C)(=O)=O)c(=O)n2Cc2ccc(Cl)cc2)cc1F [I-253] = Not fulfilled

----------
molecular target: human P2X3 receptor (Homo sapiens (Human)); assay: Evaluation of human P2X3 receptor inhibitory activity (ATP-induced Fluo-3 fluorescence, FDSS 3000); details: C6BU-1 cell transfected with human P2X3 receptor gene
Listing of entries alongside the reported IC50.
MEASUREMENT_LABEL: IC50 (nM)

CC(C)Oc1ccc(Nc2nc(=O)c(C(=O)NC(CO)CO)cn2Cc2ccc(Cl)cc2)cc1F = 120
CC(C)Oc1ccc(Nc2nc(=O)c(NC(=O)OC(C)(C)C)cn2Cc2ccc(Cl)cc2)cc1F = 92
CC(C)Oc1ccc(Nc2nc(=O)c(/C=C/C(=O)O)cn2Cc2ccc(Cl)cc2)cc1Cl = 307
CCOC(=O)c1c(O)[nH]/c(=N\c2ccc(OC(C)C)cc2)n(Cc2ccc(Cl)cc2)c1=O = 188
Cc1ccc(Oc2ccc(Nc3ncc(NC(=O)C(CO)CO)c(=O)n3Cc3ccc(Cl)cc3)cc2)cn1 [I-296] = 7
COC(=O)[C@@H](C)Cn1c(=O)cc(Nc2ccc(OC(C)C)cn2)n(Cc2ccc(Cl)cc2)c1=O = 427
CC(C)Oc1ccc(Nc2ncc(NC(=O)NC3CCOCC3)c(=O)n2Cc2ccc(Cl)cc2)cc1F = 7
COC(=O)[C@@H](C)NC(=O)c1cnc(Nc2ccc(OC(C)C)c(F)c2)n(Cc2ccc(Cl)cc2)c1=O = 98
CC(=O)N1CCC(C(=O)Nc2cnc(Nc3ccc(OC(C)C)c(F)c3)n(Cc3ccc(Cl)cc3)c2=O)CC1 = 10
CCNC(=O)Nc1cnc(Nc2ccc(OC(C)C)c(F)c2)n(Cc2ccc(Cl)cc2)c1=O = 7
COC(=O)c1cncc(Oc2ccc(Nc3ncc(NC(=O)C4CCOCC4)c(=O)n3Cc3ccc(Cl)cc3)cc2)c1 = 2
CC(C)Oc1ccc(Nc2nc(=O)c(Cc3ccccc3)cn2Cc2ccc(Cl)cc2)cc1Cl = 148
Cc1nc2ccc(Nc3ncc(NC(=O)C(C)(C)O)c(=O)n3Cc3ccc(Cl)cc3)cc2s1 = 3
CC(C)Oc1ccc(Nc2ncc(C#N)c(=O)n2Cc2ccc(Cl)cc2)cc1F = 436
CC(C)Oc1ccc(Nc2cc(=O)n(Cc3ccc(Cl)cc3)c(=O)n2Cc2ccc(Cl)cc2)cc1Cl = 238
CC(C)NC(=O)c1c(O)[nH]/c(=N\c2ccc(OC(C)C)cc2)n(Cc2ccc(Cl)cc2)c1=O = 504
COCCC(=O)Nc1cn(Cc2ccc(Cl)cc2)c(Nc2ccc(OC(C)C)c(F)c2)nc1=O = 417
Cc1ccc(Oc2ccc(Nc3ncc(NC(=O)C(C)(C)O)c(=O)n3Cc3ccc(Cl)cc3)cc2)cn1 = 2
CC(C)Oc1ccc(Nc2ncc(NC(=O)C3CCOCC3)c(=O)n2Cc2ccc(Cl)cc2)cc1Cl = 6
COC(=O)CCCn1c(=O)cc(Nc2ccc3nc(C)sc3c2)n(Cc2ccc(Cl)cc2)c1=O = 24

----------
target: UniProtKB P56373; experiment: Evaluation of human P2X3 receptor inhibitory activity (ATP-induced Fluo-3 fluorescence, FDSS 3000); conditions: C6BU-1 cell transfected with human P2X3 receptor gene
Listing of entries alongside the reported log10 of IC50.
MEASUREMENT_LABEL: log10 of IC50 (log10 of the value in nM)

CC(C)Oc1ccc(Nc2nc(=O)c(C(=O)NCCO)cn2Cc2ccc(Cl)cc2)cc1F [I-146] = 2.58
CC(C)Oc1ccc(Nc2ncc(NC(=O)c3ccc(=O)[nH]c3)c(=O)n2Cc2ccc(Cl)cc2)cc1F [I-276] = 1.51
Cc1cc(Nc2ncc(NC(=O)C3CCOCC3)c(=O)n2Cc2ccc(Cl)cc2)ccc1OC(C)C [I-237] = 1.11
CC(C)Oc1ccc(Nc2nc(=O)c(NC=O)cn2Cc2ccc(Cl)cc2)cc1F [I-239] = 2.71
CC(C)Oc1ccc(Nc2cc(=O)n(CC(=O)O)c(=O)n2Cc2ccc(Cl)cc2)cc1F [I-105] = 2.61
CC(=O)N1CCC(NC(=O)c2cn(Cc3ccc(Cl)cc3)c(Nc3ccc4nc(C)sc4c3)nc2=O)CC1 [I-302] = 1.94
CCOC(=O)c1cn(Cc2ccccc2)c(Nc2ccc(OC(C)C)c(Cl)c2)cc1=O [I-049] = 2.90
CC(C)Oc1ccc(/N=c2\[nH]c(O)c(NC(=O)C(C)C)c(=O)n2Cc2ccc(Cl)cc2)cc1 [I-341] = 2.83
CCOC(=O)c1cn(Cc2ccccc2)c(=O)cc1Nc1ccc(OC(C)C)c(Nc2ccc(OC(C)C)c(Cl)c2)c1 [I-061] = 2.87
Cc1nc2ccc(Nc3ncc(NC(=O)OCc4ccccc4)c(=O)n3Cc3ccc(Cl)cc3)cc2s1 [I-319] = 2.02
Cc1ccc(Oc2ccc(Nc3ncc(NC(=O)C(CO)CO)c(=O)n3Cc3ccc(Cl)cc3)cc2)cn1 [I-298] = 0.90
CCC1(CC)C(=O)N/C(=N\c2ccc(OC(C)C)cc2)N(Cc2ccc(Cl)cc2)C1=O [I-327] = 2.94
COC(=O)CCNC(=O)c1c(O)[nH]/c(=N\c2ccc(OC(C)C)cc2)n(Cc2ccc(Cl)cc2)c1=O [I-333] = 2.06
Cc1nc2ccc(Nc3cc(=O)n(CCCC(=O)O)c(=O)n3Cc3ccc(Cl)cc3)cc2s1 [I-354] = 1.97
O=C(Nc1cnc(Nc2ccc(Oc3cncc(F)c3)cc2)n(Cc2ccc(Cl)cc2)c1=O)C1CCOCC1 [I-245] = -0.10

----------
biological target: human P2X3 receptor (Homo sapiens (Human)); assay: Evaluation of human P2X3 receptor inhibitory activity (ATP-induced Fluo-3 fluorescence, FDSS 3000); type: cell-based; settings: C6BU-1 cell transfected with human P2X3 receptor gene
pIC50: −log10 of the molar value.
Listing of entries alongside the reported pIC50.
MEASUREMENT_LABEL: pIC50

Cc1nc2ccc(Nc3nc(C)c(Br)c(=O)n3Cc3ccc(Cl)cc3)cc2s1 = 6.55
CCn1c(=O)cc(Nc2ccc(Oc3ccnc(C(=O)OC)c3)cc2)n(Cc2ccc(Cl)cc2)c1=O = 8.05
CC(C)Oc1ccc(Nc2ncc(C(=O)NN)c(=O)n2Cc2ccc(Cl)cc2)cc1F = 6.98
COC(=O)CCCn1c(=O)cc(Nc2ccc(OC(C)C)c(Cl)c2)n(Cc2ccc(Cl)cc2)c1=O = 7.85
CC(C)Oc1ccc(Nc2ncc(C(=O)NCCO)c(=O)n2Cc2ccc(Cl)cc2)cc1F = 7.02
CCNc1ccc(Nc2ccc(OC(C)C)cc2)c(Cc2ccc(Cl)cc2)c1 = 6.30
CC(C)Oc1ccc(Nc2nc(=O)c3cc(C(F)(F)F)ccc3n2Cc2ccc(Cl)cc2)cc1Cl = 6.01
CC(C)Oc1ccc(Nc2ncc(NC(=O)OC(C)(C)C)c(=O)n2Cc2ccc(Cl)cc2)cc1F = 7.70
Cc1nc2ccc(Nc3ncc(NC(=O)OC(C)(C)C)c(=O)n3Cc3ccc(Cl)cc3)cc2s1 = 8.05
CC(C)Oc1ccc(Nc2cc(=O)n(C[C@H](C)C(=O)O)c(=O)n2Cc2ccc(Cl)cc2)cc1Cl = 8.05
CCOC(=O)c1cn(Cc2ccccc2)c(=O)cc1Nc1ccc(OC(C)C)c(Cl)c1 = 6.40
Cc1nc2ccc(Nc3ncc(NC(=O)C4CCOCC4)c(=O)n3Cc3ccc(Cl)cc3)cc2s1 = 8.40
O=C(O)c1cccc(Oc2ccc(Nc3ncc(NC(=O)C4CCOCC4)c(=O)n3Cc3ccc(Cl)cc3)cc2)c1 = 8.70
COc1cc(C(=O)Nc2cnc(Nc3ccc(OC(C)C)c(F)c3)n(Cc3ccc(Cl)cc3)c2=O)ccn1 = 7.02
CSc1ccc(Cn2c(Nc3ccc4nc(C)sc4c3)ncc(NC(=O)C3CCOCC3)c2=O)cc1 = 7.96
CC(C)Oc1ccc(Nc2ncc(NCCCO)c(=O)n2Cc2ccc(Cl)cc2)cc1F = 6.14
CC(C)Oc1ccc(Nc2ncc(Cc3ccccc3)c(=O)n2Cc2ccc(Cl)cc2)cc1Cl = 6.83
CC(C)Oc1ccc(Nc2ncc(NC(=O)N3CCOCC3)c(=O)n2Cc2ccc(Cl)cc2)cc1F = 7.80
COCCCNC(=O)c1cn(Cc2ccc(Cl)cc2)c(Nc2ccc3nc(C)sc3c2)nc1=O = 6.79
CC(C)Oc1ccc(Nc2ncc(CCC(=O)O)c(=O)n2Cc2ccc(Cl)cc2)cc1F = 6.17
COC(=O)C(C)(C)Cn1c(=O)cc(Nc2ccc(OC(C)C)c(F)c2)n(Cc2ccc(Cl)cc2)c1=O = 7.55
CC(=O)Nc1cnc(Nc2ccc3nc(C)sc3c2)n(Cc2ccc(Cl)cc2)c1=O = 6.95
CCOC(=O)/C=C/c1cnc(Nc2ccc(OC(C)C)c(Cl)c2)n(Cc2ccc(Cl)cc2)c1=O = 6.69
CC(C)Oc1ccc(Nc2ncc(C(=O)NNC(=O)OC(C)(C)C)c(=O)n2Cc2ccc(Cl)cc2)cc1F = 7.54
